Known inhibition of a selection of compounds
- assayProtocol: 384-well plate pilot, post-Golgi transport modulator project, inhibition of yeast transport mutant growth (AID 636)
- measurementSetup: absorbance 615 nm, about 18 h, stronger effect = higher value
Could you give me the number in %? Just the number is fine.

Answered cases to consult:
CC(C)Cc1nc(S(=O)(=O)c2ccc(Cl)cc2)c(N2CCOCC2)o1    -5.06
COc1ccc(C2=NOC(C(=O)NCCCN3CCOCC3)C2)cc1 (stereo unspecified)    -6.71
O=C(CCCC(=O)OCC(=O)NC1CCCC1)Nc1ccccn1    -6.8
CCCCc1ccc(NC(=O)N[C@H](C(=O)O)C(C)CC)cc1 (stereo partly specified)    -5.92
O=C(COc1ccc(F)cc1Br)N1CCc2ccccc21    -1.43
CCC(=O)Nc1cc(C(=O)NCC2CCCN2CC)c(OC)cc1N(C)C (stereo unspecified)    -1.47
Cc1ccc(S(=O)(=O)NCCN2CCOCC2)cc1C    -0.52
CCOC(=O)c1ccc(NC(=O)c2ccc(NS(C)(=O)=O)cc2)cc1    -0.8
c1ccc(Oc2ccc(-n3cnnn3)cc2)cc1    -0.52
COc1cc(C(=O)Nc2ccc(-n3cnnn3)c(C)c2)cc(OC)c1OC    -2.08

Pending compound:
Asked: For the compound shown here, Nn1c(SCc2csc(-c3ccccc3)n2)nnc1-c1cccs1 , give the reported inhibition.
Given back: -9.05

* * *

- assayProtocol: growth suppression of yeast trafficking mutant, preliminary HTS, modulators of trafficking downstream of Golgi apparatus project, 1536-format plate, OD 615 nm (AID 637)
- measurementSetup: yeast transport mutant growth, absorbance 615 nm, 18 h; stronger effect = higher value
propertyLabel: inhibition (%)
Could you give me the number in %? Just the number is fine.

Answered cases to consult:
O=C(CSCc1cccc(F)c1)N1CCN(c2ccccc2)CC1    -4.67
CCN(CC)c1ccc2cc(NC(=O)CCC(=O)O)c(=O)oc2c1    -5.32
CCOC(=O)CC(=O)Nc1c(C)cc(C)cc1C    -2.95
CCOC(=O)CNC(=O)Nc1ccccc1C(=O)OC    1.29

Asked: For the molecule shown here, CCCCOC(=O)CN1C(=O)c2ccc(C(=O)OCCCC)cc2C1=O , give the reported inhibition.
Given back: 0.82

Asked: For the molecule shown here, Cc1cc(C)nc(N2CCC(C(=O)NC3CCCCCC3)CC2)n1 , give the reported inhibition.
Given back: 1.13

Asked: For the molecule shown here, CN(C)c1nc(Nc2ccc(Cl)cc2)nc(OCC#N)n1 , give the reported inhibition.
Given back: 11

Asked: For the molecule shown here, Cc1nc2cccc(C(=O)NC3CCCCC3)c2o1 , give the reported inhibition.
Given back: 7.05

Asked: For the molecule shown here, COc1cc(OC)nc(NC(=O)CSc2nc3ccccc3o2)n1 , give the reported inhibition.
Given back: 2.95

Asked: For the molecule shown here, COc1ccc(-n2c(SCC#N)nc3ccccc3c2=O)cc1 , give the reported inhibition.
Given back: 3.28

Asked: For the molecule shown here, CCOC(=O)N1CCC2(CC1)CC(=O)c1c(ccc3oc(C(=O)O)c(C)c13)O2 , give the reported inhibition.
Given back: -4.55

Asked: For the molecule shown here, CCN1C(=O)OC2(CCCCC2)C1(C)O (stereo not given) , give the reported inhibition.
Given back: -7.27

* * *

- assayProtocol: growth suppression of yeast trafficking mutant, preliminary HTS, modulators of trafficking downstream of Golgi apparatus project, 1536-format plate, OD 615 nm (AID 637)
- measurementSetup: yeast transport mutant growth, absorbance 615 nm, 18 h; stronger effect = higher value
propertyLabel: inhibition (%)
Could you give me the number in %? Just the number is fine.

Answered cases to consult:
O=C(NCC1CCCO1)C1c2ccccc2C(=O)N1C1CCCCCC1 (stereo unspecified)    1.43
CC(C)(C)C(=O)Oc1cc(N)n(S(=O)(=O)c2ccccc2)n1    -5.27
COc1ccccc1C(=O)N1CCN(C(=O)c2ccncc2)CC1    4.35

Asked: For the compound shown here, CCOC(=O)N1CCC(N2C(=O)c3ccccc3C2Nc2ccc3c(C)cc(=O)oc3c2)CC1 (stereo unspecified) , give the reported inhibition.
Given back: -2.67

Asked: For the compound shown here, Cn1c(=O)n(C)c2cc(CNc3ccc(N4CCOCC4)c(C(=O)O)c3)ccc21 , give the reported inhibition.
Given back: 0.49

Asked: For the compound shown here, COCn1c(COc2ccccc2)nc2ccccc21 , give the reported inhibition.
Given back: -2.67

Asked: For the compound shown here, COc1ccc(CCn2c(NCCCN3CCOCC3)nc3c2c(=O)[nH]c(=O)n3C)cc1 , give the reported inhibition.
Given back: 30.3

* * *

- tgt: Receptor tyrosine-protein kinase erbB-2 (Homo sapiens)
- assayProtocol: reducers of endogenous Her2 protein level, primary screen, SKBR3 breast tumor cells, AlphaScreen, ATP viability (AID 461);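 note: lower value means less Her2 protein in the cells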
- measurementSetup: 18-24 h, at 10 µM, stronger effect = lower value
Threshold check on Her2 level: strictly below 90% is Y; on or above 90% is N.

Cc1ccc(CNC(=O)C2CCN(S(=O)(=O)c3c(C)noc3C)CC2)cc1    N
CC1(c2ccc(Cl)cc2)NC(=O)N(CC(=O)NC(=O)NCc2ccco2)C1=O (stereo unspecified)    Y
CN(C)CCCn1c(N)c(C#N)c2nc(C#N)c(C#N)nc21    Y
O=C(NC1CCCc2ccccc21)C1CCN(S(=O)(=O)c2cnc[nH]2)CC1 (stereo unspecified)    N
Cn1nnnc1SCSc1nnnn1C    Y

Asked: Hi there! Is Her2 level for CC1=C(C(=O)NCc2ccco2)C2(CCC(C)CC2)OC1=O (stereo unspecified) below 90%, do you know?
Given back: N

Asked: Hi there! Is Her2 level for CC1(C)Cc2c(c(-c3ccccc3)nc(N3CCCC3)c2C(N)=O)CO1 below 90%, do you know?
Given back: N

Asked: Hi there! Is Her2 level for NC(=O)C1CCN(CC(=O)N2c3ccccc3CCc3ccccc32)CC1 below 90%, do you know?
Given back: N

Asked: Hi there! Is Her2 level for CCC(=O)OCCn1c(=O)c2cc3c(=O)n(CCOC(=O)CC)c(=O)c3cc2c1=O below 90%, do you know?
Given back: N

Asked: Hi there! Is Her2 level for O=S(=O)(Nc1ccc(Cc2ccncc2)cc1)N1CCCC1 below 90%, do you know?
Given back: N

* * *

- assayProtocol: reversal of MRP1-mediated doxorubicin resistance, pilot screen, H69AR cells, doxorubicin co-treatment (AID 601)
- measurementSetup: H69AR cells, CellTiter-Glo, 72 h; compound alone cytotoxicity; at 10 µM
propertyLabel: viability
Give the number first and the unit second.

CCC(=O)Nc1c(C#N)c2nc3ccccc3nc2n1-c1ccccc1C    87.5%

Pending compound:
Asked: For the compound shown here, Cc1cccc(C2c3c(n(C)c(=O)n(C)c3=O)N=C3c4ccccc4C(=O)C32)c1 (stereo not given) , give the reported viability.
Given back: 24.3%

* * *

- assayProtocol: growth suppression of yeast trafficking mutant, preliminary HTS, modulators of trafficking downstream of Golgi apparatus project, 1536-format plate, OD 615 nm (AID 637)
- measurementSetup: yeast transport mutant growth, absorbance 615 nm, 18 h; stronger effect = higher value
Known inhibition of a selection of molecules
Could you give me the number in %? Just the number is fine.

Answered cases to consult:
Cc1ccc(-c2noc(CCC(=O)NCC3CCN(Cc4cccc(C)c4)CC3)n2)cc1    1.83
CCn1c(SCc2nc3ccccc3c(=O)[nH]2)nnc1-c1cccnc1    -0.16
Fc1ccccc1C(c1nnnn1Cc1ccc2c(c1)OCO2)N1CCN(Cc2ccccc2)CC1 (stereo not given)    -4.13
CCCn1c2ccccc2c2nnc(SCC(=O)OCC)nc21    3.64
NC(=O)CCS(=O)(=O)CCN1CCCCC1    -2.95

Asked: For the molecule shown here, O=C(C1CCC1)N1CCc2cc(S(=O)(=O)Nc3ccc4c(c3)OCO4)ccc21 , give the reported inhibition.
Given back: -5.08

Asked: For the molecule shown here, COc1ccc(N2CCN(CCCNC(=O)CC3Oc4ccc(C)cc4NC3=O)CC2)cc1 (stereo not given) , give the reported inhibition.
Given back: -2.62

Asked: For the molecule shown here, O=C(C(c1ccccc1)c1ccccc1)N1CCN(Cc2ccccn2)CC1 , give the reported inhibition.
Given back: -5.83

Asked: For the molecule shown here, CCCOc1ccc(C2c3c(oc4ccccc4c3=O)C(=O)N2CCCN2CCOCC2)cc1 (stereo not given) , give the reported inhibition.
Given back: -4.26

Asked: For the molecule shown here, COc1ccc(C2CC(c3ccccc3)Nc3nc(NC(=O)c4cccs4)nn32)cc1 (stereo not given) , give the reported inhibition.
Given back: -5.08

* * *

Known viability of a selection of compounds
- assayProtocol: reversal of MRP1-mediated doxorubicin resistance, pilot screen, H69AR cells, doxorubicin co-treatment (AID 601)
- measurementSetup: H69AR cells, CellTiter-Glo, 72 h; compound alone cytotoxicity; at 10 µM
Give the number first and the unit second.

Answered cases to consult:
O=c1c2c(nc3nc(COc4ccccc4)[nH]n13)CCC2    101%
CC1Oc2ccccc2N(CC(=O)N(Cc2ccccc2)Cc2ccccn2)C1=O (stereo unspecified)    88.6%
COc1ccc(C)cc1NC(=O)CSc1nnnn1Cc1ccccc1    96.8%
Cc1onc(-c2ccccc2)c1C(=O)Nc1ccnn1C1CCCCC1    90.6%
CC1=C(C(=O)OCc2ccccc2)C(c2ccc(C)o2)C2=C(CCCC2=O)N1 (stereo unspecified)    103%
O=C(Nc1nc2c(s1)CCc1ccccc1-2)c1cccs1    82.9%

Asked: For the compound shown here, CC(=O)N(C(C)=O)c1cccc2c(N(C(C)=O)C(C)=O)cccc12 , give the reported viability.
Given back: 91.7%

Asked: For the compound shown here, O=C(Cn1cnc2ccccc2c1=O)NCCC(=O)N1CCN(Cc2ccccc2)CC1 , give the reported viability.
Given back: 89.8%

Asked: For the compound shown here, COCCn1c(=O)[nH]c2cc(C(=O)NCc3cccnc3)ccc2c1=O , give the reported viability.
Given back: 97.9%

Asked: For the compound shown here, COc1cc(-c2nc(-c3cccc(C(F)(F)F)c3)no2)cc(OC)c1OC , give the reported viability.
Given back: 93.4%

Asked: For the compound shown here, Cc1ccc(S(=O)(=O)n2nc(OC(=O)c3ccco3)cc2N)cc1 , give the reported viability.
Given back: 88.8%

src = PubChem BioAssay
